measuredOn: steroid sulphatase (STS) (Homo sapiens, UniProt P08842)
Sequence (P08842 22-583): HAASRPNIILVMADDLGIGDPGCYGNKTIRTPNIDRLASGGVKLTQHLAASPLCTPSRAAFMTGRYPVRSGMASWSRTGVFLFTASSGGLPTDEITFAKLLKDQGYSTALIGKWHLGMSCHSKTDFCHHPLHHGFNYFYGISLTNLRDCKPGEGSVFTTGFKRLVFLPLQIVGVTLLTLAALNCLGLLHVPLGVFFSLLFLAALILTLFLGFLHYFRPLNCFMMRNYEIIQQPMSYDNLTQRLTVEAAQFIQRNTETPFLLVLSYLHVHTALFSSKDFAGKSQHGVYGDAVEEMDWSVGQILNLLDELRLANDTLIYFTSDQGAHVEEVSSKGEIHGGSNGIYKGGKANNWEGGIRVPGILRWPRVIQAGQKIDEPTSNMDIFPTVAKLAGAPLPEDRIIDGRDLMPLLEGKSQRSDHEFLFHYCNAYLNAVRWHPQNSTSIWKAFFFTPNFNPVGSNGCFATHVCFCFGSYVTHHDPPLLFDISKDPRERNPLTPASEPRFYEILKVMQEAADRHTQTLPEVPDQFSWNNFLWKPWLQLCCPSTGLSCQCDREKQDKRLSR
runDescription: Inhibition of steroid sulphatase activity in placental microsomes, Protocol 4
Assay type: biochemical
assayConditions: read-out: Placental Microsomes, % inhibition 1 μM
testReadout: inhibition at 1 µM (%)
Number only, in %; omit the unit.

A selection of reference data follows.
compound	uom	observedMeasurement
CSc1cc2c(cc1OS(N)(=O)=O)CCC1C2CC[C@]2(C)C(=O)CCC12 (stereo partly shown)	%	86.9
CSc1cc2c(cc1OS(N)(=O)=O)CCC1C2CC[C@@]2(C)C1CC[C@@]2(O)Cc1ccccc1 (stereo in doubt)	%	93
CCSc1cc2c(cc1OS(N)(=O)=O)CCC1C2CC[C@]2(C)C(=O)CCC12 (stereo partly shown)	%	66

[in] Given the compound CSc1cc2c(cc1OS(N)(=O)=O)CCC1C2CCC2(C)C1CCC2(O)Cc1ccc(C(C)(C)C)cc1 (stereo not shown) , what is its reported inhibition at 1 µM?
[out] 81.8

* * *

# IC50 values compiled below
measuredOn: CuZnSOD (UniProt P00442)
runDescription: Superoxide dismutase (SOD) spectrophotometric XTT assay, Protocol 1
Format: biochemical
assayConditions: xanthine oxidase/XTT, 24° C., 30 minutes, read-out: IC 50/μM (+/− SEM) SOD Inhibition
Number only, in µM; omit the unit.

A selection of reference data follows.
molecule	measuredOn	testReadout	uom	observedMeasurement
CSc1cc2c(cc1O)CCC1C2CC[C@]2(C)C(=O)CCC12 (stereo partly drawn)	CuZnSOD (UniProt P00442)	IC50	µM	21
CCSc1cc2c(cc1O)CCC1C2CCC2(C)C(O)CCC12 (stereo not drawn)	CuZnSOD (UniProt P00442)	IC50	µM	14
CC12CCC3c4cc(F)c(O)cc4CCC3C1CCC2=O (stereo not drawn)	CuZnSOD (UniProt P00442)	IC50	µM	81
CSc1cc2c(cc1O)CCC1C2CCC2(C)C(O)CCC12 (stereo not drawn)	CuZnSOD (UniProt P00442)	IC50	µM	10
COc1cc2c(cc1O)CCC1C2CCC2(C)C(O)CCC12 (stereo not drawn) [Compound 3, 2-methoxy-17β-estradiol, reference compound]	CuZnSOD (UniProt P00442)	IC50	µM	12

[in] Given the molecule CCOc1cc2c(cc1O)CCC1C2CCC2(C)C(O)CCC12 (stereo not drawn) , what is its reported IC50?
[out] 11

[in] Also need CC12CCC3c4cc(Cl)c(O)cc4CCC3C1CCC2=O (stereo not drawn) , thanks.
[out] 83

The reported measurements were obtained from patent US7342004B2.
